System: Staphylococcus aureus 209P
assayProtocol: minimal inhibitory concentration, agar dilution method (in vitro)
Type: cell-based
Source text: When determined according to the agar dilution method, the penicillins [I] afford the minimal inhibitory concentrations as shown in the following Table 1: […]
Kindly apply the following: rule met if MIC is less than 0.8 µg/mL, rule not met in every other case.

compound	assignedClass
CC1(C)SC2C(NC(=O)C(NC(=O)c3cnc4cnc(NC(=O)OCc5ccccc5)nc4c3O)c3ccccc3)C(=O)N2C1C(=O)O (centres unmarked) [Example 57]	rule not met
COc1nc(OC)c2ncc(C(=O)NC(C(=O)NC3C(=O)N4C3SC(C)(C)C4C(=O)O)c3ccccc3)c(O)c2n1 (centres unmarked) [Example 54]	rule not met
CC1(C)S[C@@H]2[C@H](NC(=O)C(NC(=O)c3cnc4cc([N+](=O)[O-])ccc4c3O)c3ccccc3)C(=O)N2[C@H]1C(=O)O (some centres unmarked) [Example 21]	rule met
CC1(C)SC2C(NC(=O)C(NC(=O)c3cnc4cnc(O)nc4c3O)c3ccccc3)C(=O)N2C1C(=O)O (centres unmarked) [Example 53]	rule not met
CC1(C)S[C@@H]2[C@H](NC(=O)C(NC(=O)c3cnc4ccc(O)nc4c3O)c3ccccc3)C(=O)N2[C@H]1C(=O)O (some centres unmarked) [Example 29]	rule not met
CC1(C)S[C@@H]2[C@H](NC(=O)C(NC(=O)c3cnc4cc(S(C)(=O)=O)ccc4c3O)c3ccccc3)C(=O)N2[C@H]1C(=O)O (some centres unmarked) [Example 22]	rule met
CC1(C)S[C@@H]2[C@H](NC(=O)[C@H](NC(=O)c3cnc4ccccc4c3O)c3ccccc3)C(=O)N2[C@H]1C(=O)O [Example 3]	rule met
CCOC(=O)Oc1c(C(=O)N[C@@H](C(=O)N[C@@H]2C(=O)N3[C@@H]2SC(C)(C)[C@@H]3C(=O)O)c2ccccc2)cnc2ccccc12 [Example 1]	rule met

Task item: Identify whether the compound CN(C)c1ccc2ncc(C(=O)NC(C(=O)N[C@@H]3C(=O)N4[C@@H]3SC(C)(C)[C@@H]4C(=O)O)c3ccccc3)c(O)c2n1 (some centres unmarked) [Example 12] records MIC below 0.8 µg/mL.
Reply: rule met

Task item: Identify whether the compound CC(C)(C)C(=O)Oc1c(C(=O)N[C@@H](C(=O)N[C@@H]2C(=O)N3[C@@H]2SC(C)(C)[C@@H]3C(=O)O)c2ccccc2)cnc2ccccc12 [Example 6] records MIC below 0.8 µg/mL.
Reply: rule met

Task item: Identify whether the compound CC1(C)S[C@@H]2[C@H](NC(=O)C(NC(=O)c3cnc4cc(C(F)(F)F)ccc4c3O)c3ccccc3)C(=O)N2[C@H]1C(=O)O (some centres unmarked) [Example 20] records MIC below 0.8 µg/mL.
Reply: rule met

Task item: Identify whether the compound COc1ccc2c(O)c(C(=O)NC(C(=O)N[C@@H]3C(=O)N4[C@@H]3SC(C)(C)[C@@H]4C(=O)O)c3ccccc3)cnc2c1 (some centres unmarked) [Example 18] records MIC below 0.8 µg/mL.
Reply: rule met

Task item: Identify whether the compound Cc1cnc2c(O)c(C(=O)NC(C(=O)NC3C(=O)N4C3SC(C)(C)C4C(=O)O)c3ccccc3)cnc2c1 (centres unmarked) [Example 33] records MIC below 0.8 µg/mL.
Reply: rule not met

Task item: Identify whether the compound CSc1ccc2ncc(C(=O)NC(C(=O)N[C@@H]3C(=O)N4[C@@H]3SC(C)(C)[C@@H]4C(=O)O)c3ccccc3)c(O)c2n1 (some centres unmarked) [Example 11] records MIC below 0.8 µg/mL.
Reply: rule met
